molecular target: Aβ42 (Homo sapiens, UniProt P05067); assay: Th-T (thioflavin-T) assay of Aβ42 aggregation; format: biochemical; settings: column suffix _20; reading M2
Sequence (P05067 672-713): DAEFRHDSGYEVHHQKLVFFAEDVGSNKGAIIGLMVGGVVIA
Observation type: Th-T assay signal, mean of three wells (Fig. 7a)

Molecule: C=C1CCC2C(C)(CCC=C(C)C)C(O)CCC2(C)C1Cc1c(OC)oc(CO)c(C)c1=O (centres unmarked) [Compound 12]
Numeric value: 0.3314
--
Molecule: C=C1CCC2C(C)(CCC=C(C)C)C(O)CCC2(C)C1Cc1c(OC)oc(CO)c(C(=O)OC)c1=O (centres unmarked) [Compound 13]
Numeric value: 0.2414
--
Molecule: C=C1CCC2C(C)(CCC=C(C)C)C(O)CCC2(C)C1Cc1c(OC)oc(C)c(C(=O)OC)c1=O (centres unmarked) [Compound 14]
Numeric value: 0.2567
--
Molecule: C=C1CC[C@@H]2[C@](C)(CC[C@H]3O[C@H](C=C(C)C)C[C@@]23C)[C@@H]1Cc1c(OC)oc(CO)c(C(=O)OC)c1=O [Compound 21]
Numeric value: 0.223
--
Molecule: C=C1CC[C@@H]2[C@](C)(CC[C@H]3O[C@H](C=C(C)C)C[C@@]23C)[C@@H]1Cc1c(OC)oc(CO)c(C)c1=O [Compound 20]
Numeric value: 0.2391
